# assay_target: T1, Cyno CD33 ECD-HSA (cynomolgus monkey)
# T1 construct: Cyno CD33 extracellular domain fused to monomeric human serum albumin and a six-histidine tag; also called C33W1
# procedure_summary: ProteOn SPR, mAb captured by anti-human Fc, 1:1 Langmuir fit
# Method: The panel of mAbs was then further characterized for full affinity analysis as well as epitope binning. The binding of anti-CD33 mAbs to recombinant human CD33 ECD-HSA (C33W2) and cyno CD33 ECD-HSA (C33W1) was measured by ProteOn SPR (Bio-Rad). […] Different mAbs were captured on the anti-human Fc IgG surface at 0.25 or 0.5 μg/ml (160-300 RU) in vertical ligand orientation, with the 6th ligand channel as no ligand surface control. […]
Binary label based on koff with cut-off 0.0005 s⁻¹: below gives label 1, not below gives label 0.

Here's what some known entries look like.
- C33B125 (antibody, IgG1, V domains shown, huIgG1 F405L; also called C33F130; C33H84/C33L66) VH: QVQLVESGGGVVQPGRSLRLSCAASGFTFSSYGMHWVRQAPGKGLEWVAVISYDGSNKYYADSVKGRFTISRDNSKNTLYLQMNSLRAEDTAVYYCAKDFRSFDWLPPDSTSYYGMDVWGQGTTVTVSS VL: SYELTQPPSVSVSPGQTASITCSGDKLGDKYVCWYQQKPGQSPVVVIHQDRKRPSGIPERFSGSNFGNTATLTISGTQAMDEADYYCQAWDSSTVVFGGGTKLTVL: label 1
- C33B82 (antibody, IgG1, V domains shown, huIgG1 F405L; also called C33F87; C33H78/C33L57) VH: QVQLVESGGGVVQPGRSLRLSCAASGFTFSSYGMHWVRQAPGKGLEWVAVISYDGSNKYYADSVKGRFTISRDNSKNTLFLQMNSLRAEDTAVYYCAKDFRYFDWLPPDSSSYYGMDVWGQGTTVTVSS VL: SYELTQPPSVSVSPGQTASITCSGDELGNKYACWYQQKPGQSPVVVVYQDRKRPSGIPERFSGSNFGNTATLTISGTQAMDEADYYCQAWDSSTVVFGGGTKLTVL: label 0
- C33B55 (antibody, IgG1, V domains shown, huIgG1 F405L; also called C33F60; C33H45/C33L11) VH: QVQLVESGGGVVQPGRSLRLSCAASGFTFSSYGMHWVRQSPGKGLEWVAVISYDGSNKYCADSVKGRFTISRDNSKSTLYLQMNSLRAEDTAVYYCAKDFRSLDWLPPDSTSYDGMDVWGQGTTVTVSS VL: SYELTQPPSVSVSPGQTASITCSGHKLGDKYACWYQQKPGQSPVVVIYKDSKRPSGIPERFSGSNFGNTATLTISGTQAMDEADYYCQAWDSSTVVFGGGTKLTVL: label 1

Now turn to the next binder.
Problem: Quick check: does C33B46 (antibody, IgG1, V domains shown, huIgG1 F405L; also called C33F51; C33H108/C33L74) VH: QVQLVQSGSELKKPGASVKVSCKASGYTFSTYAMNWVRQAPGQGLEWMGWINTNTGNPTYAQGFTGRFVFSLDTSVSTAYLQISSLKAEDTAVYYCARDRDRGTDYWGQGTLVTVSS VL: QSALTQPASVSGSPGQSITISCTGTSSDVGDDNYVSWYQQHPGKAPKLMIYDVSNRPSGVSNRFSGSKSGNTASLTISGLQSEDEADYYCSSYSSSTTLEVFGGGTKLTVL have koff under 0.0005 s⁻¹?
Result: label 1
